% Inhibition by entry:
tested on: Plasmodium falciparum; test: Confirmatory screen in NF54 nanoGlo assay, in single point, at 2uM, 72h; assay type: functional, Erythrocyte; settings: timepoint 72 hour
The campaign covered roughly 4,800 compounds. About 420 (8.8%) showed an effect of 50% or more. The sample as a whole holds a higher share of strong results than the screen did.
Reported Property: % Inhibition (%)

[[record]]
molecule = "Cc1ccccc1[C@H]1CCN(c2ccc(NC(=O)c3ccc(Cl)cc3)c(C(=O)O)c2)C1"
target_system = "Plasmodium falciparum"
reported_property = "% Inhibition"
measure_unit = "%"
value_observed = -11

[[record]]
molecule = "Cc1ccc([C@@H]2c3cccn3CCCN2Cc2cccs2)cc1C"
target_system = "Plasmodium falciparum"
reported_property = "% Inhibition"
measure_unit = "%"
value_observed = 10

[[record]]
molecule = "Cc1ccc(C(=O)Nc2cc3c4c(c2)C2CCCC2CN4CC2CCCC32)cc1 (stereo not drawn)"
target_system = "Plasmodium falciparum"
reported_property = "% Inhibition"
measure_unit = "%"
value_observed = 60

[[record]]
molecule = "CCc1nnc(NC(=O)C2CC2c2ccccc2)s1 (stereo not drawn)"
target_system = "Plasmodium falciparum"
reported_property = "% Inhibition"
measure_unit = "%"
value_observed = -3

[[record]]
molecule = "CCN(C(=O)Cn1ncn2nc(-c3cccc4ccccc34)cc2c1=O)c1ccccc1"
target_system = "Plasmodium falciparum"
reported_property = "% Inhibition"
measure_unit = "%"
value_observed = 1

[[record]]
molecule = "Cc1ccc(OCc2cccc(-c3nc4c5cn[nH]c5ncn4n3)c2)c(C)c1"
target_system = "Plasmodium falciparum"
reported_property = "% Inhibition"
measure_unit = "%"
value_observed = -7

[[record]]
molecule = "CN(c1ccc(Br)cc1)S(=O)(=O)c1ccc2c(c1)CCN2C(=O)C1CCC1"
target_system = "Plasmodium falciparum"
reported_property = "% Inhibition"
measure_unit = "%"
value_observed = -7

[[record]]
molecule = "CNC(=O)N1CCN(c2cc(C)nc(C3CC3)n2)CC1"
target_system = "Plasmodium falciparum"
reported_property = "% Inhibition"
measure_unit = "%"
value_observed = -18

[[record]]
molecule = "COc1ccc(C2=NC3(CCN(Cc4ccccc4)CC3)N[C@H](c3cc(Cl)ccc3O)C2)cc1"
target_system = "Plasmodium falciparum"
reported_property = "% Inhibition"
measure_unit = "%"
value_observed = 24

[[record]]
molecule = "Cc1ccc(C(=O)Nc2ccc3c(c2)OC(C)(C)C(=O)N3)cc1"
target_system = "Plasmodium falciparum"
reported_property = "% Inhibition"
measure_unit = "%"
value_observed = -4

[[record]]
molecule = "Cc1nn(C(C)(C)C)c2nc(C3CC3)cc(C(=O)N(C)c3ccccc3)c12"
target_system = "Plasmodium falciparum"
reported_property = "% Inhibition"
measure_unit = "%"
value_observed = 81

[[record]]
molecule = "COc1c(Cl)cc(Cl)cc1CNC(C)C"
target_system = "Plasmodium falciparum"
reported_property = "% Inhibition"
measure_unit = "%"
value_observed = 4

[[record]]
molecule = "CCn1ccnc1C(=O)Nc1ccc(OC)nc1"
target_system = "Plasmodium falciparum"
reported_property = "% Inhibition"
measure_unit = "%"
value_observed = -6

[[record]]
molecule = "O=C(CN1CCCCCC1)Nc1ccc(OCc2ccccc2)cc1"
target_system = "Plasmodium falciparum"
reported_property = "% Inhibition"
measure_unit = "%"
value_observed = 0

[[record]]
molecule = "CNC(=O)c1cc(NS(=O)(=O)N2CCCCCC2)ccc1F"
target_system = "Plasmodium falciparum"
reported_property = "% Inhibition"
measure_unit = "%"
value_observed = -8

[[record]]
molecule = "CCN(C(=O)CN1C(=O)C(c2ccccc2)=NC12CCC(C)CC2)c1ccccc1 (stereo not drawn)"
target_system = "Plasmodium falciparum"
reported_property = "% Inhibition"
measure_unit = "%"
value_observed = -9

[[record]]
molecule = "CC(=O)N[C@H]1[C@H](c2ccccc2)N(CCCc2ccccc2)CC[C@@]1(C)O"
target_system = "Plasmodium falciparum"
reported_property = "% Inhibition"
measure_unit = "%"
value_observed = 1

[[record]]
molecule = "COc1ccc(NC(=O)CN2N=C(C(=O)Nc3ccc(F)cc3)CCC2=O)cc1"
target_system = "Plasmodium falciparum"
reported_property = "% Inhibition"
measure_unit = "%"
value_observed = -7

[[record]]
molecule = "CCN(C(=O)Cn1cc(-c2ccccc2)c2ncn(CC)c(=O)c21)c1ccccc1"
target_system = "Plasmodium falciparum"
reported_property = "% Inhibition"
measure_unit = "%"
value_observed = 75

[[record]]
molecule = "CN(C)/C=C/c1cc(C#N)c(C#N)cc1Br"
target_system = "Plasmodium falciparum"
reported_property = "% Inhibition"
measure_unit = "%"
value_observed = -4

[[record]]
molecule = "COc1ccc(F)c(NC(=O)N(CCO)C(C)C)c1"
target_system = "Plasmodium falciparum"
reported_property = "% Inhibition"
measure_unit = "%"
value_observed = 5

[[record]]
molecule = "CS(=O)(=O)Nc1nc2c(s1)CN(C(=O)c1ccc3c(c1)CCC=C3)CC2"
target_system = "Plasmodium falciparum"
reported_property = "% Inhibition"
measure_unit = "%"
value_observed = 0

[[record]]
molecule = "COc1ccc2nc(O)c(C(=O)Nc3ccc4c(c3F)CCNC4)cc2c1"
target_system = "Plasmodium falciparum"
reported_property = "% Inhibition"
measure_unit = "%"
value_observed = 99

